- MEASUREMENT_TARGET: Protein deacetylase HDAC6 (Homo sapiens)
- Sequence (Q9UBN7 whole entry): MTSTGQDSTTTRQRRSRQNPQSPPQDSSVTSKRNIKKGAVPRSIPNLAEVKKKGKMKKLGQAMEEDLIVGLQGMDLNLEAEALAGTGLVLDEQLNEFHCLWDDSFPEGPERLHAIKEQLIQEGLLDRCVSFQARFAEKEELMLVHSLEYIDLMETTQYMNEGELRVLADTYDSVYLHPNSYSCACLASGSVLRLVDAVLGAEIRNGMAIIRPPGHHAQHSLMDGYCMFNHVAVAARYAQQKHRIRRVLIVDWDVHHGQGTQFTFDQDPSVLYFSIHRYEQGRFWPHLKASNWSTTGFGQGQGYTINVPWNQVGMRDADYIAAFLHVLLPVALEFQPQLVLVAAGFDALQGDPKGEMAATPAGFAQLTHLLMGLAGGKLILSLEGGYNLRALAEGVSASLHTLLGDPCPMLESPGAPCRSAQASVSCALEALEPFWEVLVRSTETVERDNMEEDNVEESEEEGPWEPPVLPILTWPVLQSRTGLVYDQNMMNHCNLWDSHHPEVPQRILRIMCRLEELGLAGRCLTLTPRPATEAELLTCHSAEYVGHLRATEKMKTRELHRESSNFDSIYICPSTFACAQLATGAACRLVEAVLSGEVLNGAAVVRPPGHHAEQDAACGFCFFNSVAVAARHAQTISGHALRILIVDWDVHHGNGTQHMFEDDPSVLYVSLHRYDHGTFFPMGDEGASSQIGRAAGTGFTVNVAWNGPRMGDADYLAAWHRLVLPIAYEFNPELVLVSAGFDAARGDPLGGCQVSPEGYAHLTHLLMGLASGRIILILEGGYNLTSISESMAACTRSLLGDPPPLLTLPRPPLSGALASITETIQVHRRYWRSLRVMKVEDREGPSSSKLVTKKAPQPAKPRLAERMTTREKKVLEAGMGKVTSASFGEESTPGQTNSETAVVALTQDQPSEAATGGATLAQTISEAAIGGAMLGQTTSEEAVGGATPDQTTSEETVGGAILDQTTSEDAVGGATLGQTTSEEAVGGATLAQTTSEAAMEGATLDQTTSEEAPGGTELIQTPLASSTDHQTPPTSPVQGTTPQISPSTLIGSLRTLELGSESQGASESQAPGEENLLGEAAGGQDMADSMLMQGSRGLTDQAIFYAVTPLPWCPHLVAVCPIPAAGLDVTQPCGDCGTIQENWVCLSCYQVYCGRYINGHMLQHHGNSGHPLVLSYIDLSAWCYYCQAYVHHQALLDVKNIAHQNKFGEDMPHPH
- PROTOCOL_NOTES: Binding affinity to biotinylated HDAC6 ZnF-UBD (unknown origin) by surface plasmon resonance method
MEASURED_ATTRIBUTE: Kd

{"STRUCTURE_AS_SMILES": "O=C(O)CCc1nc2cc3nc(CCC(=O)O)sc3cc2s1", "MEASURED_ATTRIBUTE": "Kd", "VALUE_MEASURED": "8 µM"}

###

- MEASUREMENT_TARGET: Protein deacetylase HDAC6 (Homo sapiens)
- PROTOCOL_NOTES: Displacement of N-terminal FITC-labeled RLRGG from N-terminal AviTag/C-terminal His6-tagged HDAC6 ZnF-UBD (unknown origin) expressed in Escherichia coli BL21 (DE3) after 10 mins by fluorescence polarization assay
- MEASUREMENT_CONTEXT: read-out: IC50
MEASURED_ATTRIBUTE: log10 IC50 (log10 of the value in µM)

{"STRUCTURE_AS_SMILES": "O=C(O)Cn1nc(O)c2ccccc2c1=O", "log10 IC50": 2.30}
{"STRUCTURE_AS_SMILES": "O=C(O)Cn1cnc2ccccc2c1=O", "log10 IC50": 2.51}
{"STRUCTURE_AS_SMILES": "NC(=O)c1cc(-n2c(CCC(=O)O)nc3ccccc32)cs1", "log10 IC50": 2.81}
{"STRUCTURE_AS_SMILES": "O=C(O)CCc1nc2cc(Cl)ccc2n(Cc2ccccc2)c1=O", "log10 IC50": 2.18}
{"STRUCTURE_AS_SMILES": "COc1nc2ccccc2nc1CCC(=O)O", "log10 IC50": 1.65}
{"STRUCTURE_AS_SMILES": "Cn1c(=O)c(CCC(=O)O)nc2ccccc21", "log10 IC50": 1.81}
{"STRUCTURE_AS_SMILES": "O=C(O)CCc1nc2ccccc2s1", "log10 IC50": 2.26}
{"STRUCTURE_AS_SMILES": "O=C(O)CCc1nc(O)c2ccccc2n1", "log10 IC50": 2.36}
{"STRUCTURE_AS_SMILES": "O=C(O)CCc1nc2cc3nc(CCC(=O)O)sc3cc2s1", "log10 IC50": 0.71}
{"STRUCTURE_AS_SMILES": "O=C(O)Cn1cnc2c(oc3ccccc32)c1=O", "log10 IC50": 1.71}
{"STRUCTURE_AS_SMILES": "N#Cc1c2n(c3c(=O)n(CC(=O)O)cnc13)CCCC2", "log10 IC50": 1.89}
{"STRUCTURE_AS_SMILES": "COc1cc2ncn(CCC(=O)O)c(=O)c2cc1OC", "log10 IC50": 1.98}
